Below, each of the compounds is paired with its reported Plant response rating, Oilseed Rape value.
# System: oilseed rape (Brassica napus)
# TEST_NAME: Test C greenhouse herbicide test, pre- and postemergence
# Assay type: in vivo
# TEST_PARAMETERS: Preemergence, 125 g ai/ha; scale 0 to 100, 0 is no effect, 100 is complete control

SMILES	Plant response rating, Oilseed Rape
Cc1ccc2ccc(C)c(-c3c(O)c(C)nn(C)c3=O)c2c1	90
CCOC(=O)Oc1c(C)nn(C)c(=O)c1-c1c(C)ccc2ccccc12	90
CCC(=O)Oc1c(Cl)nn(C)c(=O)c1-c1c(C)sc2ccc(Cl)cc12	100
Cc1nn(C)c(=O)c(-c2c(C)sc3ccc(Cl)cc23)c1O	85
CC(=O)Oc1c(C)nn(C)c(=O)c1-c1c(C)cc(C)c2ccccc12	98
COC(=O)Oc1c(C)nn(C)c(=O)c1-c1c(C)sc2c(C)cc(C)cc12	40
